System: CCRF-CEM leukemia
Assay remarks: NCI-60 one-dose screen, 48 h (100 = growth as untreated, 0 = no growth, -100 = all killed)
Particulars: 10 µM unless noted
This is part of a sample that, as a whole, favours compounds with a hit. Of some 83,000 tested, about 20% had one in any assay.
Quantity: growth (%)
Give just the numeric value; % need not be written.

Known growth results, listed for orientation:
NC(=S)N/N=C/c1ncccc1O    1.76
O=C(Cc1nc2cc(Cl)c(Cl)cc2nc1CC(=O)c1ccccc1)c1ccccc1    27.1
CCCCCCCCCCCCN1C(C)=CS/C1=C\C=C\c1scc(C)[n+]1CCCCCCCCCCCC    20
COc1ccc2c(c1)c(CC(=O)O)c(C)n2C(=O)c1ccc(Cl)cc1    89.7
CC(=O)Nc1ccc(C(=O)CCl)cc1    -49.9

Quick note, growth for O=C(c1ccccc1)C(Br)C(Br)c1ccccc1 (configuration not stated) landed at -14

Note to self: growth recorded for "NCCCN(CCCN)CCCNCc1c2ccccc2c(CNCCCN(CCCN)CCCN)c2ccccc12" was 102

// growth lookup, compound = "CN(C)c1ccc(/C=C/c2sc3ccc4ccccc4c3[n+]2C)cc1" , result: -8.92

Documented growth of "CCCOS(=O)(=O)c1ccccc1" : 6.52

get_value(item= CCCCCCC1N=C(N)N=C(N)N1c1cccc(Cl)c1 (configuration not stated) , readout=growth) returns 28.7

GET /value?item= "CCc1cnc2ccccc2c1/C=C/c1ccc(N(C)C)cc1" &field=growth returns 32.9

Sure, the documented growth for "COc1cc(OC)c(/C=C/c2c3ccccc3cc[n+]2C)c(OC)c1" is 18.2

Cited source for all entries: PubChem BioAssay (NCI)
